- SYSTEM: CREB-binding protein/Histone acetyltransferase p300 (Homo sapiens) (UniProt Q09472+Q92793)
- Sequence (Q09472 whole entry, looked up): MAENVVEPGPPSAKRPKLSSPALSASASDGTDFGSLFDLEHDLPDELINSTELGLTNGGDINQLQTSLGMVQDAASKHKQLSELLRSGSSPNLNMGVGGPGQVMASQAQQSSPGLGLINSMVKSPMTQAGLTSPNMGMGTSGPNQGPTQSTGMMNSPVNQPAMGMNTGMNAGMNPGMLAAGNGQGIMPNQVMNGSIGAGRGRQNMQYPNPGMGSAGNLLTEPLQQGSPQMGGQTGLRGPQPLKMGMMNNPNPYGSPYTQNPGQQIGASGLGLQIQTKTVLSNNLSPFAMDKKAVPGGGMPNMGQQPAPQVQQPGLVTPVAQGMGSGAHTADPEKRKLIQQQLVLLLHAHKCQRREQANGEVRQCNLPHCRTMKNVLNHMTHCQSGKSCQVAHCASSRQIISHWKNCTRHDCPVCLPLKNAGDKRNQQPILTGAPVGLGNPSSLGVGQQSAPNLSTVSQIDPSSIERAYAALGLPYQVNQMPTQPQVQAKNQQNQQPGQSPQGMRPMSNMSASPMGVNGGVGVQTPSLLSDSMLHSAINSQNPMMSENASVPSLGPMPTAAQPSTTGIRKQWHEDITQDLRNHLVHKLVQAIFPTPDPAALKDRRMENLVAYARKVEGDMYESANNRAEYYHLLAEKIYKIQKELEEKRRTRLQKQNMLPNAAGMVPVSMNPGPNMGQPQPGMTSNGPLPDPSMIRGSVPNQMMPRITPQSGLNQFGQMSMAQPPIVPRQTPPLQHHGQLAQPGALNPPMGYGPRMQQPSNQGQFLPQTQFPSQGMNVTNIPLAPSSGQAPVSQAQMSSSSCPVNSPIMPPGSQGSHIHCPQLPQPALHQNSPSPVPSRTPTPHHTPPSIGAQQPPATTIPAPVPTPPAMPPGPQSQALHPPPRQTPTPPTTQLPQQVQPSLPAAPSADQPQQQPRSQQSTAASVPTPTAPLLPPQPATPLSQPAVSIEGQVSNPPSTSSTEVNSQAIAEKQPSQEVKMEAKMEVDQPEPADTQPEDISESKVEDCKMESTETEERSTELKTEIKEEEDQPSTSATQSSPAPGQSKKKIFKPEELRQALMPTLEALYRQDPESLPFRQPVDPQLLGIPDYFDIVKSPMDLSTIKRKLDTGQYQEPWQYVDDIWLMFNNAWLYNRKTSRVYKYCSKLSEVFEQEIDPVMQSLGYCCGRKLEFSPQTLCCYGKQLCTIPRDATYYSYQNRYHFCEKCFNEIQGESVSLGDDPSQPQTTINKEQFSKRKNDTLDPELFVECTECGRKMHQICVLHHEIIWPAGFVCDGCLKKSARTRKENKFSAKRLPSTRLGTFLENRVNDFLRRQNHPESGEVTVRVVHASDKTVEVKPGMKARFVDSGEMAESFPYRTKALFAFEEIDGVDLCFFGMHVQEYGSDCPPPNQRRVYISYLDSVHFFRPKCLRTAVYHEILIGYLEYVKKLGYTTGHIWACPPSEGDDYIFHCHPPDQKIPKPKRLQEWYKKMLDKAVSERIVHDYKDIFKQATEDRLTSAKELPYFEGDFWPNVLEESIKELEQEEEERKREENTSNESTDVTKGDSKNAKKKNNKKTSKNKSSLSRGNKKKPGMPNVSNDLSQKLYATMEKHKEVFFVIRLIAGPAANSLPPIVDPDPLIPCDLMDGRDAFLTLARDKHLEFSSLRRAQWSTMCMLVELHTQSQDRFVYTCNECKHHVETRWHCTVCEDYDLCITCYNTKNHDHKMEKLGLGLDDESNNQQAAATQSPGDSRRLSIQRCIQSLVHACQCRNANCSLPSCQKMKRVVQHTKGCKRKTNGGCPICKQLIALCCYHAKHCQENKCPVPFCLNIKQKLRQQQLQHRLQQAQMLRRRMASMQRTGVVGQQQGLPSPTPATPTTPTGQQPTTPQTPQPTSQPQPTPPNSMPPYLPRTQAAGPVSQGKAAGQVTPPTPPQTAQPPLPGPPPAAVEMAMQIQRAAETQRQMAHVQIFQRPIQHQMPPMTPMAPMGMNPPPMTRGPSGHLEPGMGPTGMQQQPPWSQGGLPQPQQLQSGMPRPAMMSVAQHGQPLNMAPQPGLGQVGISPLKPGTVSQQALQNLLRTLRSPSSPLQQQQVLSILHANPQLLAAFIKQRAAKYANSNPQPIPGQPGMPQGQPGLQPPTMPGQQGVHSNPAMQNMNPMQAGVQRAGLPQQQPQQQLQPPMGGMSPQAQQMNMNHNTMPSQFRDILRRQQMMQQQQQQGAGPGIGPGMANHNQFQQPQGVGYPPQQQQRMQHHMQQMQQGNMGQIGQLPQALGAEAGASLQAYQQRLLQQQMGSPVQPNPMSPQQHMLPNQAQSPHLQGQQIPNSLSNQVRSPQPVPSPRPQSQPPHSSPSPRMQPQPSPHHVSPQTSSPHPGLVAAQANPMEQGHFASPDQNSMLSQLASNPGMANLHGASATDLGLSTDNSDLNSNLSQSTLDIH
- Sequence (Q92793 whole entry, looked up): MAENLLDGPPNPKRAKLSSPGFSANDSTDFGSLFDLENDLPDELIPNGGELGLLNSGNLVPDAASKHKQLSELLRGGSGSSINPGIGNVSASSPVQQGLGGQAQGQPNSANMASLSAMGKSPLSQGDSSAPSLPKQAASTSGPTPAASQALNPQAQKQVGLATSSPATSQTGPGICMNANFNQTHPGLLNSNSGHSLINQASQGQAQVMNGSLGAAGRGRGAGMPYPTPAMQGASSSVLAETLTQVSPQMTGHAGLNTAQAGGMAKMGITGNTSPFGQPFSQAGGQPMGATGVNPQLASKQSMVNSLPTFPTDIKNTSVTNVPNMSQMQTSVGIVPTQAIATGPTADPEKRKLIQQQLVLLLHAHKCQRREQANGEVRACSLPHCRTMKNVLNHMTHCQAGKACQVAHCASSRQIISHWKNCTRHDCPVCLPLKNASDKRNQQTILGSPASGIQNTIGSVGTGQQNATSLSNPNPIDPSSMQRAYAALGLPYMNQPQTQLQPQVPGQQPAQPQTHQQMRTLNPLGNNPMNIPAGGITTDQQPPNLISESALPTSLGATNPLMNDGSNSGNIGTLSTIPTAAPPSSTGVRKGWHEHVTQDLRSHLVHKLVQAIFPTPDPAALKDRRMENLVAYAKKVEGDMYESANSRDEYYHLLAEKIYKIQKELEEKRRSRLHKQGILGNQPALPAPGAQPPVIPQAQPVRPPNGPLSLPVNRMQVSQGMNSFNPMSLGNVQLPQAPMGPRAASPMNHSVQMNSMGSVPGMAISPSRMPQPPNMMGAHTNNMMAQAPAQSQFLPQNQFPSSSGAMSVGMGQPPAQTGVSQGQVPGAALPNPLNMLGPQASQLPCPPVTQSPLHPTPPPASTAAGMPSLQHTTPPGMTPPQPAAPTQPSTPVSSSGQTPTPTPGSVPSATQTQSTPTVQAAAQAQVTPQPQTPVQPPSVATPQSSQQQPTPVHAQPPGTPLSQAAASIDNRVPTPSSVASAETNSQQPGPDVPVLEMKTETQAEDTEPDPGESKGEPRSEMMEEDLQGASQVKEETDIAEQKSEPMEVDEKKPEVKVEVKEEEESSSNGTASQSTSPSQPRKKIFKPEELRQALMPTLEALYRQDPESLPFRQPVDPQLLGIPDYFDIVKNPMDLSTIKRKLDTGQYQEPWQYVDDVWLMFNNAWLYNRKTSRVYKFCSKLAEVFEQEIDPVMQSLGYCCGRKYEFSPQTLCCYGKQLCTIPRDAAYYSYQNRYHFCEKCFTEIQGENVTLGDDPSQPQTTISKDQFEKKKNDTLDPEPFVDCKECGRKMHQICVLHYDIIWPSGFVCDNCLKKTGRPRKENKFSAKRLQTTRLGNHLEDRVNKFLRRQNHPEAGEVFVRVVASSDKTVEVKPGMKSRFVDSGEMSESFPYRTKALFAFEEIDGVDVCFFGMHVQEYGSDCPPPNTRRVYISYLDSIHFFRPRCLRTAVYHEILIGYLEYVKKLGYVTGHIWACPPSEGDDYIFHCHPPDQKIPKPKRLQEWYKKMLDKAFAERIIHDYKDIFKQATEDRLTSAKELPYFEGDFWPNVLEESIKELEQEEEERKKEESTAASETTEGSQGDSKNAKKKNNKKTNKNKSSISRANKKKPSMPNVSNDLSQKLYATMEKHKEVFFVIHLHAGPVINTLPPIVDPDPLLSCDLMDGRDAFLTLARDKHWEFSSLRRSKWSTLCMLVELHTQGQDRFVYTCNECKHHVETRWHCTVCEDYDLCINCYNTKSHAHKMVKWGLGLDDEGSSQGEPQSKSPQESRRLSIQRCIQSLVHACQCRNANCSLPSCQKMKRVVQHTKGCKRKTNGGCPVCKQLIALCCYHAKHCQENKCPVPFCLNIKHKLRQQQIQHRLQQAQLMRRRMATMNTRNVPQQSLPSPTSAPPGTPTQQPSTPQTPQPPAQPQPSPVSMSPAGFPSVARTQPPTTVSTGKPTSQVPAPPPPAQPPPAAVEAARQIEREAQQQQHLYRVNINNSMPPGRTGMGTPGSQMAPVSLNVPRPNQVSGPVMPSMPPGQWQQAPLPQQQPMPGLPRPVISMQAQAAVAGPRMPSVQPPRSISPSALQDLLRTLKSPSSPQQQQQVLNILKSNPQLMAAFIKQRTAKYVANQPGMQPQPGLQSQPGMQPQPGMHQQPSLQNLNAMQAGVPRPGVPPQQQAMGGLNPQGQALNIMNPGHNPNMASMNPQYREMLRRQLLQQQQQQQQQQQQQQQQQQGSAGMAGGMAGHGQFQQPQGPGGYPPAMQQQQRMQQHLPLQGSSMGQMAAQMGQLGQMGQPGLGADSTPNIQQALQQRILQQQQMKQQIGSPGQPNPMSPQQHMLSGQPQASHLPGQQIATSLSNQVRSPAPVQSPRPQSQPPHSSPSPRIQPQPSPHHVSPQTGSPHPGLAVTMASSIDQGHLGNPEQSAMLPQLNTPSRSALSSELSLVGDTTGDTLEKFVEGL
- PROTOCOL DETAILS: Protac activity at p300/CBP degradation in human MM1.S cells assessed as amount p300 remaining at 10 uM incubated for 24 hrs by pulldown-based Western blot analysis
- Format: cell-based
EXPERIMENTAL ENDPOINT: Activity (%)
Write the answer as a number in %, unit excluded.

C[C@H](N(Cc1ccc(F)cc1)C(=O)CN1C(=O)O[C@@]2(CCc3cc(NC(=O)NCCCCNc4cccc5c4C(=O)N(C4CCC(=O)NC4=O)C5=O)ccc32)C1=O)C(F)(F)F (some centres undefined) : 42
C[C@H](N(Cc1ccc(F)cc1)C(=O)CN1C(=O)O[C@@]2(CCc3cc(NC(=O)NCCOCCOCCNc4cccc5c4C(=O)N(C4CCC(=O)NC4=O)C5=O)ccc32)C1=O)C(F)(F)F (some centres undefined) : 49
C[C@H](N(Cc1ccc(F)cc1)C(=O)CN1C(=O)O[C@@]2(CCc3cc(NC(=O)NCCOCCOCCOCCOCCNc4cccc5c4C(=O)N(C4CCC(=O)NC4=O)C5=O)ccc32)C1=O)C(F)(F)F (some centres undefined) : 9

Attention now turns to another entry.
IN: Recorded Activity of C[C@H](N(Cc1ccc(F)cc1)C(=O)CN1C(=O)O[C@@]2(CCc3cc(NC(=O)NCCOCCOCCOCCNc4cccc5c4C(=O)N(C4CCC(=O)NC4=O)C5=O)ccc32)C1=O)C(F)(F)F (some centres undefined) , please.
OUT: 18
